Parameter: growth. Scope: all listed entries.
- Tested on: A549/ATCC NSCLC
- EXPERIMENTAL_PROTOCOL: NCI-60 one-dose screen, 48 h (100 = growth as untreated, 0 = no growth, -100 = all killed)
- MEASUREMENT_PARAMETERS: 10 µM unless noted
About 83,000 compounds went through this panel and 20% of them were active in at least one assay; those are over-represented in the sample as a whole.
Could you give me the number in %? Just the number is fine.

The following compounds have reported results that may help.
| COMPOUND | DATA_VALUE |
| --- | --- |
| CCCCCC1(CCBr)C(=O)NC(=O)NC1=O | 98.3 |
| C=CC12CCN(CC1)C(C(O)c1ccnc3ccc(OC)cc13)C2 (stereo not given) | 76.1 |
| CCC(O)(CN)c1ccccc1 (stereo not given) | 86.6 |

Could you please provide reported growth for CC[S][Hg][Cl] ? Thanks!
98.8

Consider the compound Cc1ccc(C(Cc2ccccc2)NCCO)cc1 (stereo not given) . State its measured growth.
69.2

Look up and report measured growth for this entry: C#C[C@]1(OC(=O)CCCCCC)CC[C@H]2[C@@H]3CCC4=CC(=O)CC[C@@H]4[C@H]3CC[C@@]21C
46.1

Using known records, supply growth for COC(=O)[C@@H](C)C[C@H](Cc1ccc2ccccc2c1)NC(=O)c1csc([C@@H](C[C@H](C(C)C)N(C)C(=O)[C@@H](NC(=O)[C@H]2CCCCN2C)C(C)C)OC(C)=O)n1
47.5

Give growth for the following compound: C[C@]12CCc3sc(NCCc4ccccc4)nc3C1=CC[C@@H]1[C@@H]2CC[C@]2(C)C(=O)CC[C@@H]12
87.8

Kindly indicate its recorded growth. Item: O=C(CCl)c1ccc([N+](=O)[O-])o1
106

Annotate the compound CN1CC(=O)N(O)C1(C)c1cccnc1 (stereo not given) with its measured growth.
101
